Form field: pIC50 (one value per entry).
tested on: HT-29; experiment: Cytotoxicity MTS, solid tumors, Colon HT-29; format: cell-based; conditions: 4-Parameter Curve Fit, NA = not active
pIC50: −log10 of the molar value.

# molecule, pIC50
data = [
    ("CCCCCCCCCCCCCCC[C@@H](O)[C@@H](N)CC [drawing 116]", 5.04),
    ("CCCCCCCCCCCCCC[C@@H](O)[C@H](C)N [drawing 115]", 6.58),
    ("CCCCCCCCCCCCCCC[C@@H](O)[C@H](C)N [drawing 112]", 6.89),
    ("CCCCCCCCCCCCCCCC[C@@H](O)[C@H](C)N [drawing 113]", 7.19),
    ("CCCCCCCCCCCCCCCCC[C@@H](O)[C@H](C)N [drawing 114]", 5.04),
]
